- System: Mycobacterium tuberculosis
- test details: Antimycobacterial activity against Mycobacterium tuberculosis H37Rv assessed as inhibition of bacterial growth by microdilution alamar blue broth assay
- Type: functional, organism-based
quantity: MIC (µM)
Value expressed in µM; do not type the unit.

Problem: Input COc1ccc([C@@H]2[C@H]3CSCN3C3(C(=O)c4ccccc4C3=O)[C@]23CSc2ccccc2C3=O)cc1 , output reported MIC.
Result: 50

Problem: Specify MIC for CN1C[C@@H](c2ccc(Br)cc2)[C@@]2(CSc3ccccc3C2=O)C12C(=O)c1ccccc1C2=O and stop.
Result: 50

Problem: Tell me MIC reported for CN1C[C@@H](c2ccc(F)cc2)[C@@]2(CSc3ccccc3C2=O)C12C(=O)c1ccccc1C2=O
Result: 50

Problem: Identify the reported MIC for the following entry. CC(C)c1ccc([C@@H]2CN(C)C3(C(=O)c4ccccc4C3=O)[C@]23CSc2ccccc2C3=O)cc1
Result: 100

Problem: Find the measured MIC of N[C@@H]1CONC1=O [CYCLOSERINE] and report it.
Result: 25

---

- Test system: Mycobacterium tuberculosis
- test details: Antimycobacterial activity against Mycobacterium tuberculosis H37Rv assessed as inhibition of bacterial growth by microdilution alamar blue broth assay
- Assay type: functional, organism-based
quantity: IC90 (µM)
All answers are understood in µM, so give the number only.

[[record]]
compound = "Cc1ccc([C@@H]2[C@H]3CSCN3C3(C(=O)c4ccccc4C3=O)[C@]23CSc2ccccc2C3=O)cc1"
obs_value = 47.7


Problem: Provide one value: measured IC90 of CN1CC(c2ccc(Cl)cc2Cl)[C@@]2(CSc3ccccc3C2=O)C12C(=O)c1ccccc1C2=O (single isomer, unassigned)
Result: 1.98

Problem: Query IC90 for O=C1c2ccccc2C(=O)C12N1CSC[C@@H]1[C@@H](c1ccccc1)[C@@]21CSc2ccccc2C1=O
Result: 25.5

Problem: Kindly indicate its recorded IC90. Item: O=C1c2ccccc2C(=O)C12N1CSC[C@@H]1[C@@H](c1cccc3ccccc13)[C@@]21CSc2ccccc2C1=O
Result: 47.7

Problem: Read off the recorded IC90 for CN1C[C@@H](c2cccs2)[C@@]2(CSc3ccccc3C2=O)C12C(=O)c1ccccc1C2=O
Result: 44.6

Problem: Output measured IC90 for this item: CN1C[C@@H](c2ccc(Br)cc2)[C@@]2(CSc3ccccc3C2=O)C12C(=O)c1ccccc1C2=O
Result: 41.9

Problem: Annotate the compound O=C1c2ccccc2C(=O)C12N1CSC[C@@H]1C(c1ccc(Cl)cc1Cl)[C@@]21CSc2ccccc2C1=O (single isomer, unassigned) with its measured IC90.
Result: 4.6

Problem: Tell me its IC90 given COc1ccc([C@@H]2[C@H]3CSCN3C3(C(=O)c4ccccc4C3=O)[C@]23CSc2ccccc2C3=O)cc1 as the entry.
Result: 24.6

Problem: Please report IC90 for the following compound: NCC[C@H](O)C(=O)N[C@@H]1C[C@H](N)[C@@H](O[C@H]2O[C@H](CN)[C@@H](O)[C@H](O)[C@H]2O)[C@H](O)[C@H]1O[C@H]1O[C@H](CO)[C@@H](O)[C@H](N)[C@H]1O
Result: 0.08

Problem: Given CN1C[C@@H](c2ccc(F)cc2)[C@@]2(CSc3ccccc3C2=O)C12C(=O)c1ccccc1C2=O , respond with its IC90.
Result: 22

Problem: Check the records and state IC90 for CN1C[C@@H](c2cccc3ccccc23)[C@@]2(CSc3ccccc3C2=O)C12C(=O)c1ccccc1C2=O
Result: 14.6

Problem: Input O=C1c2ccccc2C(=O)C12N1CSC[C@@H]1[C@@H](c1ccc(Cl)cc1)[C@@]21CSc2ccccc2C1=O , output reported IC90.
Result: 15.5
